assay: Abiotic CYP (aCYP) oxidation, remaining parent compound (Cparent-Ratio); details: Table S9, replicate 1
metric: Cparent-Ratio Rep.1 % (%)
Express your answer in %, writing the number without its unit.

# query: Cparent-Ratio Rep.1 % of entry "Cc1ccc(S(=O)(=O)NC(=O)Nc2cccc(OS(=O)(=O)c3ccc(C)cc3)c2)cc1"
66.98

Query O=C(OCc1ccccc1)c1ccc(O)cc1 [BzPB, Benzyl 4-hydroxybenzoate] next
115.59

Can you check COC(=O)C(c1ccc(O)cc1)c1ccc(O)cc1 [Bz, Methyl bis(4-hydroxyphenyl)acetate] next?
113.92

Same read-out for CC1(C)C(O)C(C)(C)C1O (racemic) ?
94.58

Follow-up entry: CC(C)(c1ccc(O)c(-c2ccccc2)c1)c1ccc(O)c(-c2ccccc2)c1 [BPPH, 2,2-Bis(2-hydroxy-5-biphenylyl)propane]
89.82

====

Molecular target: Estrogen Receptor ERα (Homo sapiens)
Sequence (P03372 311-547 limits assumed): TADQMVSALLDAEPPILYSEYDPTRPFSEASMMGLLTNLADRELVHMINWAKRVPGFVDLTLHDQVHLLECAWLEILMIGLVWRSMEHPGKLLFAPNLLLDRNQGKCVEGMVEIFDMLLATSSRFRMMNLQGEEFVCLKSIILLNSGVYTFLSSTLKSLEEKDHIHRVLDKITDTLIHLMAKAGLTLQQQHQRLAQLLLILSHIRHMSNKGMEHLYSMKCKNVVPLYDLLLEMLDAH
Assay: cell-based
Conditions: Bioassay ERα; dosing range all; in M
Please respond with reported EC10, linear transformed for every item in the list.

Using the record for C=CCOc1ccc(S(=O)(=O)c2ccc(O)cc2)cc1 [BPS-MAE, 4-[[4-(Allyloxy)phenyl]sulfonyl]phenol] , report its EC10, linear transformed.
1.26E-05

// repeat for O=C(OCc1ccccc1)c1ccc(O)cc1 [BzPB, Benzyl 4-hydroxybenzoate] and report
3.07E-06

Item: CC(C)c1cc(C(C)(C)c2ccc(O)c(C(C)C)c2)ccc1O [BPG]
9.02E-07

Follow-up entry: CC(C)Oc1ccc(S(=O)(=O)c2ccc(O)cc2)cc1 [D8, 4-((4-Isopropoxyphenyl)sulfonyl)phenol]
1.21E-05

Follow-up entry: Oc1ccc(Sc2ccc(O)cc2)cc1 [BPT, 4,4'-Thiodiphenol]
2.87E-07

Likewise for Oc1ccc(Cc2ccc(O)cc2)cc1 [BPF, Bis(4-hydroxyphenyl)methane] ?
9.67E-07

====

tested on: ERα; assay: Literature ERα reporter gene assays (comparison); assay type: cell-based; conditions: relative estrogenic potency vs BPA; ref Reiniger et Oehlmann 2024
What REPBPA was measured for each of the following?
Would you mind answering with just the numeric figure?

Any idea what REPBPA came out for "O=S(=O)(c1ccc(O)cc1)c1ccc(O)cc1" on ERα?
3.52E+01

Can you check Oc1ccc(Cc2ccc(O)cc2)cc1 [BPF, Bis(4-hydroxyphenyl)methane] next?
8.90E-01

Try CC(C)(c1ccc(O)cc1)c1ccc(O)cc1 [BPA, 4,4'-(Propane-2,2-diyl)diphenol, reference compound] next.
1.00E+00

Can you check "CCC(C)(c1ccc(O)cc1)c1ccc(O)cc1" next?
1.35E+00

Likewise for "Oc1ccc(C(c2ccc(O)cc2)(C(F)(F)F)C(F)(F)F)cc1" ?
5.21E+00

====

assay: Abiotic CYP (aCYP) oxidation, remaining parent compound (Cparent-Ratio); conditions: Table S11
metric: % Loss (%)
Respond numerically; units are % and should not be typed.

What does the data say about its % Loss? Entry: CC(C)(c1ccc(O)c(-c2ccccc2)c1)c1ccc(O)c(-c2ccccc2)c1 [BPPH, 2,2-Bis(2-hydroxy-5-biphenylyl)propane]
22

Likewise for CC(C)c1cc(C(C)(C)c2ccc(O)c(C(C)C)c2)ccc1O [BPG] ?
34

Would you kindly repeat that for Cc1ccc(S(=O)(=O)NC(=O)Nc2ccc(Cc3ccc(NC(=O)NS(=O)(=O)c4ccc(C)cc4)cc3)cc2)cc1 [BTUM] ?
79

Do the same for Cc1ccc(S(=O)(=O)NC(=O)Nc2cccc(OS(=O)(=O)c3ccc(C)cc3)c2)cc1 [Pergafast] please
32

Here is the next compound: Oc1ccc(Sc2ccc(O)cc2)cc1 [BPT, 4,4'-Thiodiphenol]
87

Item: Cc1cc(Cc2cc(C)c(O)c(C)c2)cc(C)c1O [TMBPF, Bis(3,5-dimethyl-4-hydroxyphenyl)methane]
56

Same question for CC(C)(c1ccc(O)cc1)c1ccc(O)cc1 [BPA, 4,4'-(Propane-2,2-diyl)diphenol, reference compound] please.
11
